- Assay: protein stability index of a GFP-peptide fusion (yeast GPS) (PSI 1-4); higher = more stable; sorted into four equal gates, so the index is relative within each strain
- Test parameters: san1∆
Recorded endpoint: protein stability index
Answers are plain numbers.

Solved cases (5 shown):
sequence_chain="ATRHVLMRQGVLGIKVK [RPS3]" quantitative_result=1.93
sequence_chain="VLDKMHARARGPRAVLT [RET1]" quantitative_result=3.15
sequence_chain="EINSEMCHIVRKFHELN [GRR1]" quantitative_result=2.85
sequence_chain="DLSEKILNDIETLEHNP [BRR2]" quantitative_result=3.05
sequence_chain="LVFILAVVGNNMLLDPA [RRP42]" quantitative_result=1.94

Quick one: give me protein stability index for each item below, same order please.
1. YIFCISRTIGMVVNGPI [SCL1]
2. KLKEMQKVLNAHRQRAM [SMC4]
3. KITAKTQHEEEEEQDTG [IRR1]
4. AMFFGNYGSSLQWHAMI [AAR2]
5. KTPLLKQYLSASFSLKN [RPL6A]
6. WEISNPDFLSKYSAITS [NUT1]

### Response
[1.58, 1.9, 2.82, 1.44, 2.25, 1.51]

Quick one: give me protein stability index for each item below, same order please.
1. AISTDKINPFGFEQVKI [RRI2]
2. IVTKDGVRKEFYELKRD [PRE7]
3. DNLLEMSDHSLDKLNCA [RRP6]
4. QIFKVAGENAPSIVFID [RPT2]
5. TSNDASNKKETKKKRKP [ITC1]
6. ILYYDVLFITPDIVGHE [BRR2]
7. HPPDFKRMLLSLSEFAR [SNF2]
8. YGEYPPTKLLVSEVAKI [PRE8]

### Response
[2.72, 3.04, 3.22, 1.31, 3.21, 2.61, 1.26, 2.67]

Quick one: give me protein stability index for each item below, same order please.
1. KVRLNASEREELALIEE [PRP8]
2. GIGALFTQQELQKQMGI [RPC34]
3. IGISIVGRFSTISSADF [ECM29]
4. FGAKSDENKAGATSKPA [YJL041W/NSP1]
5. QYYRGLPLYEKNTLLER [SWP82]

### Response
[2.98, 3.29, 3.12, 3.44, 3.13]

Quick one: give me protein stability index for each item below, same order please.
1. HTDVSSSLEARYFFYLS [RPN3]
2. SVRIDGRKVLQKVQGES [SIR4]

### Response
1. 2.72
2. 2.98

Quick one: give me protein stability index for each item below, same order please.
1. AKQALDLYHFALNYENE [SNF2]
2. LNEMLNTRKNMSISLES [DIS3]
3. QNPLNKSQNTALPSTHK [SIR4]
4. GRENFVYANNPEVSDDG [SIR3]
5. YHFPIFNKYADPTLTTT [RPN4]
6. SLEEIIAEGQKKFATVP [RPP2B]
7. EFLPLSLHILMIFWNDI [SRB8]
8. SSIDKKSSILTVLQKNS [YML103C/NUP188]

### Response
1: 2.69; 2: 2.63; 3: 2.33; 4: 2.8; 5: 2.24; 6: 2.93; 7: 1.35; 8: 2.4
